Data origin, for the record: ChEMBL document CHEMBL1201862

System: NCI-H23
testMethodNotes: NCI tumour cell line growth inhibition, 48 h
The source made the active and inactive calls. No stated cut-off is given here; in the data, active = GI50 up to about 1.1 µM and inactive = higher. Peptide text beside a SMILES is read from it. * marks the point of attachment. Cbz = O=C(OCc1ccccc1)*
quantityMeasured: GI50

In the examples that follow, each entry is paired with its recorded GI50.
molecule	GI50
CN1CCCC2C(c3ccccc3)C(C3=NCCCC3)C(c3ccccc3)CC21 (stereo not drawn)	64.7 µM (inactive)
Cn1c2c(c3ccccc31)CCN(CCCN1CCN(c3cccc(Cl)c3)CC1)C2=O	19.5 µM (inactive)
O=C(O)CCC(NC(=O)OCc1ccccc1)C(=O)NC(Cc1c[nH]cn1)C(=O)O (stereo not drawn) (Cbz-Glu-His-OH; configuration not given here)	> 100 µM (inactive)
CC1OC(O[C@H]2CC[C@]3(C)[C@H]4CC=C5[C@@H]6[C@@H](C)[C@H](C)CC[C@]6(C(=O)OC6OC(CO)C(O)C(O)C6O)CC[C@@]5(C(=O)O)[C@]4(C)CC[C@H]3C2(C)C)C(O)C(O)C1O (stereo partly drawn)	> 100 µM (inactive)
NC(=O)c1ccccc1NC(=O)C(=O)C(C(=O)c1ccc2ccccc2c1)C1OC(=O)c2ccccc21 (stereo not drawn)	9.66 µM (inactive)

Kindly state the measured GI50 obtained for `COc1cc2c(cc1O)NC(=S)[C@@H]1CCCN1C2=O` with NCI-H23. > 100 µM (inactive)

Also check O=C(O)c1cc2c(cc1CC(Cc1ccccc1)C(=O)O)CCC2 (stereo not drawn) > 100 µM (inactive)

Queued: `COC(=O)c1ccccc1NC(=S)NN(C)C` > 100 µM (inactive)
